# PROTOCOL NOTES: Anticancer human tumor 997537-175-T-J1-PDC patient-derived colon adenocarcinoma cell line growth inhibition [POLQ];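 further: luminescence signal used as a surrogate for viable cells; spheroids exposed to drugs for seven days before readout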
# CONDITION LABEL: 997537-175-T-J1-PDC complex spheroid viability, combination with POLQ inhibitors; curve of first compound; second compound 1 µM
pIC50: −log10 of the molar value.
MEASURED QUANTITY: pIC50

CC1COCCN1c1cc(-c2ccnn2C)c2ccnc(-c3ccn[nH]3)c2n1 (stereo not drawn) + Cc1cccc(N(C)C(=O)C2C(O)CCN2c2nc(C)cc(C(F)(F)F)c2C#N)c1: < 5.00
COc1ccc([C@@H](O)c2cc(-c3ncnc4cc(N5CCOCC5)ccc34)c(F)cc2Cl)nn1 + Nc1ccc(C#CCN(C(=O)Cc2ncc(C(F)(F)F)cc2C(F)(F)F)c2ccc(F)cc2)nn1: < 5.00

Measured pIC50 of C=CC(=O)N1CCN(c2nc(=O)n(-c3c(C)ccnc3C(C)C)c3nc(-c4c(O)cccc4F)c(F)cc23)C(C)C1 (stereo not drawn) + Cc1cccc(N(C)C(=O)C2C(O)CCN2c2nc(C)cc(C(F)(F)F)c2C#N)c1 : < 5.00

The reported numbers originate from PubChem BioAssay AID1963825.
